target: Serine/threonine-protein kinase mTOR (Homo sapiens, UniProt P42345); test: Inhibition of N-terminal FLAG-tagged recombinant human mTOR (1362 to end residue) using ULight-4EBP1 peptide as substrate incubated for 30 mins in presence of ATP by Lance ultra assay
measured_quantity: IC50 (nM)

Q: Report value only: IC50, Serine/threonine-protein kinase mTOR (Homo sapiens, UniProt P42345), "Cc1nc2cnc3ccc(-c4cnc5[nH]ccc5c4)cc3c2n1CC1CCOCC1"
Ans: 415

P. COC(=O)c1ccc(-c2ccc3ncc4nc(C)n(-c5ccc(F)cc5)c4c3c2)cc1
Q. Cc1nc2cnc3ccc(-c4ccc(N)nc4)cc3c2n1-c1ccc(F)cc1
Q: Which record would sort first by descending IC50, P or Q ? State the label of the item chosen.
Ans: P

A. Cc1nc2cnc3ccc(-c4cnc5[nH]ccc5c4)cc3c2n1-c1ccc(C#N)cc1
B. Cc1nc2cnc3ccc(-c4ccc5ccccc5c4)cc3c2n1-c1ccc(F)cc1
Q: # min-compare on IC50 between A and B Answer by quoting the chosen item's label.
Ans: A

====

system: HeLa; assay: Antiproliferative activity against human HeLa cells assessed as inhibition of cell growth incubated for 48 to 72 hrs by MTT assay; format: functional, cell-based
pIC50: −log10 of the molar value.
measured_quantity: pIC50

Q: Please indicate pIC50 recorded for "Cc1nc2cnc3ccc(-c4ccc(N)cc4)cc3c2n1-c1ccc(F)cc1"
Ans: 5.50

Q: State its pIC50 for this compound: "Cc1nc2cnc3ccc(-c4cnc5[nH]ccc5c4)cc3c2n1[C@H](C)c1ccc(F)cc1"
Ans: 5.40

Q: Give the reported pIC50 for this compound. "Cc1nc2cnc3ccc(-c4cnc5[nH]ccc5c4)cc3c2n1-c1ccc(C(F)(F)F)cc1"
Ans: 5.97

I. Cc1nc2cnc3ccc(-c4cnc(N)nc4)cc3c2n1-c1ccc(F)cc1
II. Cc1nc2cnc3ccc(-c4cnc5ccccc5c4)cc3c2n1-c1ccc(F)cc1
Q: Select the item whose pIC50 value is smaller, choosing between I and II . Bench note: the answer is the label of the chosen record.
Ans: II

====

molecular target: Serine/threonine-protein kinase mTOR (Homo sapiens); assay: Inhibition of N-terminal FLAG-tagged recombinant human mTOR (1362 to end residue) using ULight-4EBP1 peptide as substrate incubated for 30 mins in presence of ATP by Lance ultra assay
pIC50: −log10 of the molar value.
measured_quantity: pIC50

Q: Read the entry "COc1ccc(-n2c(C)nc3cnc4ccc(-c5cnc6[nH]ccc6c5)cc4c32)cc1" and write its reported pIC50.
Ans: 7.17

I. Cc1nc2cnc3ccc(-c4cnc5[nH]ccc5c4)cc3c2n1[C@@H](C)c1ccccc1
II. Cc1nc2cnc3ccc(-c4ccc(O)cc4)cc3c2n1-c1ccc(F)cc1
III. Cc1nc2cnc3ccc(-c4ccc(F)cc4)cc3c2n1-c1ccc(F)cc1
Q: Ascending by pIC50, please. Respond with the label ranking, as requested.
Ans: III, II, I

====

molecular target: Serine/threonine-protein kinase mTOR (Homo sapiens); test: Inhibition of N-terminal FLAG-tagged recombinant human mTOR (1362 to end residue) using ULight-4EBP1 peptide as substrate incubated for 30 mins in presence of ATP by Lance ultra assay
pIC50: −log10 of the molar value.
measured_quantity: pIC50

Q: // fetch pIC50 given entry "Cc1nc2cnc3ccc(-c4cnc5[nH]ccc5c4)cc3c2n1[C@H](C)c1ccccc1"
Ans: 6.99

Q: // Input: "Cc1nc2cnc3ccc(-c4cnc5[nH]ccc5c4)cc3c2n1-c1ccc(C(F)(F)F)cc1" . Output its pIC50 only.
Ans: 6.96

Q: Tell me measured pIC50 for "Cc1nc2cnc3ccc(-c4cnc5[nH]ccc5c4)cc3c2n1-c1ccc(N2CCOCC2)cc1" please.
Ans: 6.94

Q: Dear colleague, please send me the reported pIC50 for "Cc1nc2cnc3ccc(-c4ccc(N)cc4)cc3c2n1-c1ccc(F)cc1" when you can.
Ans: 6.92

Q: Give reported pIC50 value for "Cc1nc2cnc3ccc(-c4cnc(N)nc4)cc3c2n1-c1ccc(F)cc1"
Ans: 7.21

A. Cc1nc2cnc3ccc(-c4cnc5[nH]ccc5c4)cc3c2n1-c1ccc(F)nc1
B. CNC(=O)c1ccc(-c2ccc3ncc4nc(C)n(-c5ccc(F)cc5)c4c3c2)cc1
Q: When their pIC50 values are compared, which is larger, A or B ? Refer to your chosen item by its label in the answer.
Ans: A

Each recorded value in this set is attributed to ChEMBL document CHEMBL5108059.
